Measured RP-LC retention time, listed per entry for reference.
# assayProcedure: gradient 5% acetonitrile 3 min, to 50% in 2 min, to 85% in 15 min, held 3 min, 100 µL/min
# measurementContext: column: Zorbax Extend-C18 2.1 x 50 mm; eluents: water / acetonitrile, 0.1% formic acid
Give the number first and the unit second.

Completed entries (count: 5):
Entry CCOC(=O)c1ccccc1NC(=O)Cn1nc2c(Sc3ccccc3)nccn2c1=O — recorded RP-LC retention time = 1060 s

Entry COc1ccc(NC2=NCCO2)c2c1CCCC2 — recorded RP-LC retention time = 640 s

Entry CC(C)c1ccc(OCC(=O)Nc2nnc(-c3ccc(Br)o3)o2)cc1 — recorded RP-LC retention time = 906 s

Entry O=C(N[C@H]1C[C@@H]2C[C@H]1CN2C(=O)c1ccc2c(c1)OCO2)c1ccccc1 — recorded RP-LC retention time = 700 s

Entry CCCN1C(=O)COc2ccc(-c3csc(NC(=O)c4ccccc4C)n3)cc21 — recorded RP-LC retention time = 1060 s

New cases:
Entry Cc1nnc(NC(=O)CSc2nnc(-c3ccccc3F)o2)s1 — recorded RP-LC retention time = 700 s

Entry CCn1ncc(C(=O)N2CCCn3ccnc3C2C(C)C)c1C (stereo not drawn) — recorded RP-LC retention time = 567 s

Entry CCN1CCn2cc(S(=O)(=O)Nc3ccc(F)c(F)c3)cc2C1=O — recorded RP-LC retention time = 727 s

----------
# assayProcedure: gradient 5% acetonitrile 3 min, to 50% in 2 min, to 85% in 15 min, held 3 min, 100 µL/min
# measurementContext: column: Zorbax Extend-C18 2.1 x 50 mm; eluents: water / acetonitrile, 0.1% formic acid
Measured RP-LC retention time, listed per entry for reference.
Give the number first and the unit second.

Entry CCOC(=O)c1nc2cc(OC)c(OC)cc2[nH]c1=O — recorded RP-LC retention time = 620 s

New cases:
Entry Cc1c(-c2noc(C(=O)NCCN3CCC(C)CC3)n2)oc2ccccc12 — recorded RP-LC retention time = 706 s

Entry CCOC(=O)C1=C(CN2CCC(c3ccccc3)C2)NC(=O)NC1c1cccs1 (stereo not given) — recorded RP-LC retention time = 681 s

Entry Cc1nc(NCc2ccco2)sc1C(=O)Nc1ccc(F)c(Cl)c1 — recorded RP-LC retention time = 900 s

Entry O=C(NCCn1nnc2cc(C(=O)N3CCCC3)ccc21)Nc1ccc(F)cc1 — recorded RP-LC retention time = 662 s

Entry CCOc1ccccc1C(=O)n1nc(C)c(S(=O)(=O)N2CCOCC2)c1C — recorded RP-LC retention time = 962 s

----------
Measured RP-LC retention time, listed per entry for reference.
# assayProcedure: gradient 5% acetonitrile 3 min, to 50% in 2 min, to 85% in 15 min, held 3 min, 100 µL/min
# measurementContext: column: Zorbax Extend-C18 2.1 x 50 mm; eluents: water / acetonitrile, 0.1% formic acid
# output: bare number, implied unit s

Completed entries (count: 4):
Entry CCCN1C(=O)COc2ccc(-c3csc(NC(=O)c4ccccc4Cl)n3)cc21 — recorded RP-LC retention time = 1030

Entry CC(=O)N1CCc2ccccc2C1C(=O)N1CCN(c2ccccn2)CC1 (stereo not given) — recorded RP-LC retention time = 587

Entry COC(=O)c1ccccc1NC(=O)c1c(O)c2cccc3c2n(c1=O)CC3 — recorded RP-LC retention time = 1170

Entry CCNC(=O)C1CCN(c2nc3ccc(-c4ccc(OC)cc4)nc3s2)CC1 — recorded RP-LC retention time = 825

Turning now to a further record.
Entry O=C(NCc1ccncc1)C1CC(=O)N(CCc2c[nH]c3ccc(F)cc23)C1 (stereo not given) — recorded RP-LC retention time = 588
